Data credit: patent US6229055A

Quick reference: pKa of the listed items.
assay: pH titration of fluorophores (pKa); conditions: given in the synthesis examples
// no unit, no text: just the number

Before answering, review these 3 worked examples.
Nc1cc2c(cc1F)C1(OC(=O)c3ccccc31)c1ccc(O)cc1O2 (stereo not shown) [Compound 52, 7'-fluororhodol] :: 5.2
CN(C)c1ccc2c(c1)Oc1cc(O)c(F)cc1C21OC(=O)c2ccccc21 (stereo not shown) [Compound 51, 2'-fluoro-N,N-dimethylrhodol] :: 4.2
Nc1ccc2c(c1)Oc1cc(O)c(F)cc1C21OC(=O)c2ccccc21 (stereo not shown) [Compound 54, 2'-fluororhodol] :: 3.8

# evaluate next
Value of pKa reported for the compound CN(C)c1cc2c(cc1F)C1(OC(=O)c3ccccc31)c1ccc(O)cc1O2 (stereo not shown) [Compound 53, N,N-dimethyl-7'-fluororhodol] is 5.3
